Sourced from patent US9346799B2

system: Stenotrophomonas malthophilia 1AC736; test: MIC by broth microdilution (NCCLS M7-A5); settings: Stenotrophomonas maltophilia 1AC736; + 206 + clavulanate, 4 mg/L each
measurementName: MIC of antibiotic (µg/mL)
Report the figure in µg/mL without appending any unit label.

CC1C(NC(=O)C(=NOCc2cc(=O)c(O)cn2O)c2cccc(N)n2)C(=O)N1S(=O)(=O)O (stereo not shown) [Compound 20]    0.5
CC1C(NC(=O)C(=NOCc2cc(=O)c(O)cn2O)c2csc(N)n2)C(=O)N1S(=O)(=O)O (stereo not shown) [Compound 1]    0.125
C[C@H]1[C@H](NC(=O)/C(=N\OCc2cc(=O)c(O)cn2C)c2csc(N)n2)C(=O)N1S(=O)(=O)O [Compound 6]    4

Now examine the next entry.
Task item: Would you mind telling me what MIC of antibiotic value was observed for CC1C(NC(=O)C(=NOCc2cc(=O)c(O)cn2O)c2nsc(N)n2)C(=O)N1S(=O)(=O)O (stereo not shown) [Compound 2] ?
Reply: 0.5

----------
system: Pseudomonas aeruginosa MK1184; test: MIC by broth microdilution (NCCLS M7-A5); conditions: antibiotic alone
Parameter: MIC of antibiotic. Scope: all listed entries.
Report the figure in mg/L without appending any unit label.

The following compounds have reported results that may help.
NC(=O)OCC1C(NC(=O)C(=NOCc2cc(=O)c(O)cn2O)c2nc(N)sc2Cl)C(=O)N1OS(=O)(=O)O (stereo not drawn)    4
CC1(C)C(NC(=O)C(=NOCc2cc(=O)c(O)cn2O)c2csc(N)n2)C(=O)N1OCC(=O)O (stereo not drawn)    32

Task item: Would you mind telling me what MIC of antibiotic value was observed for C[C@H](ON1C(=O)[C@@H](NC(=O)/C(=N\OCc2cc(=O)c(O)cn2O)c2csc(N)n2)[C@@H]1C)C(=O)O ?
Reply: 8

Task item: Next record, please: CC1(C)[C@H](NC(=O)/C(=N\OCc2cc(=O)c(O)cn2O)c2csc(N)n2)C(=O)N1OS(=O)(=O)O
Reply: 2

Task item: Next record, please: C[C@H]1[C@H](NC(=O)/C(=N\OCc2cc(=O)c(O)cn2O)c2csc(N)n2)C(=O)N1OCC(=O)O
Reply: 8

Task item: Next record, please: CC1C(NC(=O)C(=NOCc2cc(=O)c(O)cn2O)c2nsc(N)n2)C(=O)N1S(=O)(=O)O (stereo not drawn)
Reply: 8

Task item: Next record, please: NC(=O)OCC1C(NC(=O)C(=NOCc2cc(=O)c(O)cn2O)c2csc(N)n2)C(=O)N1OCC(=O)O (stereo not drawn)
Reply: 4

----------
Parameter: MIC of antibiotic. Scope: all listed entries.
system: Pseudomonas aeruginosa MK1184; assay: MIC by broth microdilution (NCCLS M7-A5); conditions: + 102 + clavulanate, 4 mg/L each
Report the figure in µg/mL without appending any unit label.

The following compounds have reported results that may help.
CC1(C)C(NC(=O)C(=NOCc2cc(=O)c(O)cn2O)c2nsc(N)n2)C(=O)N1OS(=O)(=O)O (centres unmarked)    4
NC(=O)OCC1C(NC(=O)C(=NOCc2cc(=O)c(O)cn2O)c2csc(N)n2)C(=O)N1OS(=O)(=O)O (centres unmarked)    4
C[C@H](ON1C(=O)[C@@H](NC(=O)/C(=N\OCc2cc(=O)c(O)cn2O)c2csc(N)n2)[C@@H]1C)C(=O)O    8
CC1C(NC(=O)C(=NOCc2cc(=O)c(O)cn2O)c2cccc(N)n2)C(=O)N1S(=O)(=O)O (centres unmarked)    8

Now examine the next entry.
Task item: Return MIC of antibiotic measured with Pseudomonas aeruginosa MK1184 given this compound: CC1C(NC(=O)C(=NOCc2cc(=O)c(O)cn2O)c2csc(NC=O)n2)C(=O)N1S(=O)(=O)O (centres unmarked)
Reply: 32
